B1: VH:VL chains; a variant is named by its letters at X, in order (parent)
chain 1: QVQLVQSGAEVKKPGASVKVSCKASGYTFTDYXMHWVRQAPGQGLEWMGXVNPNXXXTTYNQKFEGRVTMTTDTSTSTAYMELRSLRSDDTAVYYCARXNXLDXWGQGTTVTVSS
chain 2: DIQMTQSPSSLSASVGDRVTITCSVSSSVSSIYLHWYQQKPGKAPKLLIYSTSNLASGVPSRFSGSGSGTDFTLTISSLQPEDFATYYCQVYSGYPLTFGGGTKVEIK

Variants of: B1
Experiment: yeast display scFab, FACS + sequencing
property: non-specific binding call

1) VRTRGSGV : binds
2) FGKGGFGY : binds
3) VEGTSAVF : no binding
4) VRTRAAVD : binds
5) YRRGGYAV : binds
6) VTKESAAV : no binding
7) DKEEDSLA : no binding
8) STAGSASD : no binding
9) DAGGDDVY : no binding
10) FRGRGYGA : binds
11) YKGKGALD : binds
12) YRRGAAWA : binds
13) YKGRGYAD : binds
14) VRRRGSAF : binds
15) FRKGGSGD : binds
16) AETKGDGV : no binding
17) DEGTGAVA : no binding
18) YKETGYAV : binds
19) VEEEGDAA : no binding
20) VAETAAAA : no binding
21) FRAGSAWS : binds
22) VTERDDAV : no binding
23) VRGTGAVY : binds
24) AKTGNDVA : no binding
25) FKGEGDVA : no binding
26) YKEKGDGA : no binding
27) VETGNDGV : no binding
28) YRGAGAWS : binds
29) VRGRGDLA : no binding
30) YRGKGFGS : binds
31) YAGKTAWS : binds
32) YRKGSSVD : binds
33) DAGGADGV : no binding
34) YRAGSSGV : binds
35) YRGAGSLD : binds
36) VRGRSSLF : binds
37) VRGTGSWD : binds
38) VAEKGDLS : no binding
39) YKARTSSS : binds
40) YRAGASAD : binds
41) SEGADAGD : no binding
42) DEGEDAGA : no binding
43) VTREGAVA : no binding
44) YRARGALS : binds
45) YRGGDYGA : no binding
46) FRAGGSAA : binds
47) FRRGSSAA : binds
48) VRTEDFGV : no binding
49) SERRDVLY : binds
50) VAATASWV : no binding
51) VEGTSDGD : no binding
52) YRRGGALA : binds
53) DTKAASWV : no binding
54) SETKGDWD : no binding
55) YRARSAGF chain 1 G108D : binds
56) YRRGSVGA : binds
57) FREGGALD : binds
58) DTEEGDWV : no binding
59) YREGGFVA : binds
60) YRGKDAGA : binds
61) YRGRTAAD : binds
62) FREGSASV : binds
63) YEGGADVA : no binding
64) DREEGSSA : no binding
65) VTGTGAVV : no binding
66) DRGGDDLV : no binding
67) DEARSDGA : no binding
68) DRAGDDGS : no binding
69) VTTRASGD : no binding
70) YKGRGDAD : binds
71) YKARGAVY : binds
72) YEGTGAGA : no binding
73) VKTGGSWA : no binding
74) VEAGDDAV : no binding
75) YRGKGSAA : binds
76) YRGKGAVS : binds
77) VTGTGSVD : no binding
78) VKRGDDVA : no binding
79) FRTRDSAA : binds
80) DKEGGDLA : no binding
81) FREEGFSV : no binding
82) VKERGSVD : binds
83) YRGKGSAV : binds
84) FRGGGSSA : binds
85) VKGAGAAS : binds
86) VTGTGDVY : no binding
87) YTKTSSVD : binds
88) YKTRGSAA : binds
89) YRGAGYGS : binds
90) YRGRGFVD : binds
91) FTETGAGD : no binding
